Below, each entry is listed with its recorded Kd.
Biological target: AlinCSP2 (Adelphocoris lineolatus, UniProt E7BLG5)
Sequence (E7BLG5 entry or part of it): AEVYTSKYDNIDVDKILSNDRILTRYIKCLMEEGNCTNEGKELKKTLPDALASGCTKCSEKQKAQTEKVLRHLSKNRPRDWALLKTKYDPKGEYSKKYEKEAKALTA
Assay: biochemical
Format: binding
Conditions: KD (µM) AlinCSP2, given as u.d., u.d. = KD not calculated because IC50>50 µM

| Input Smiles | Kd |
| --- | --- |
| C=C1CC/C=C(\C)CC[C@@H]2[C@@H]1CC2(C)C | > 50 µM |
| CC(C)=CCC/C(C)=C/C=O | > 50 µM |
| CC1=CC=C(C(C)C)CC1 | > 50 µM |

* * *

Molecular target: AlinCSP1 (Adelphocoris lineolatus)
Sequence (J7EJ71 entry or part of it): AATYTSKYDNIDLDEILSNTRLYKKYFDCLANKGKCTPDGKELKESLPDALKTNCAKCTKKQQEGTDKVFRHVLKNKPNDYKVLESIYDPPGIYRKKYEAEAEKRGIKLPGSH
Assay: biochemical
Type: binding
Conditions: 1-NPN and protein at 2 µM, 50 mM Tris-HCl pH 7.4; KD calculated from IC50; mean of three measurements; read-out: KD (µM) AlinCSP1
Measured Endpoint: Kd (µM)

| Molecule | Measured Endpoint | Unit Annotation | Numeric Readout |
| --- | --- | --- | --- |
| CCCCC/C=C\CCO [(Z)-3-Nonen-1-ol] | Kd | µM | 21.5 |
| CCCCCC(C)=O | Kd | µM | 42.9 |
| CC/C=C\CCOC(C)=O [(Z)-3-Hexenyl acetate] | Kd | µM | 7.37 |
| CCCCC | Kd | µM | 42.2 |
| CCCCCCCC | Kd | µM | 42.1 |
| C=C/C(C)=C\CC=C(C)C [(Z)−ocimene] | Kd | µM | 28.6 |
| CCCCCCCCC=O | Kd | µM | 43.6 |
| CCCCC=O | Kd | µM | 17.6 |
| CCCCC(C)O (centres unmarked) | Kd | µM | 45.4 |
| CCCCCCOC(=O)CCC [Hexyl butyrate] | Kd | µM | 46.8 |
| CCCCCCCCCOC(C)=O [Nonyl acetate] | Kd | µM | 23.6 |
| C=CC(C)(O)CCC=C(C)CCC=C(C)C (mixture of isomers) | Kd | µM | 28.1 |
| CCCCCCCCCCC | Kd | µM | 38.4 |
| C/C1=C\CC/C(C)=C/CC(C)(C)/C=C/C1 | Kd | µM | 9.96 |
| C=CC(=C)CCC=C(C)C | Kd | µM | 5.42 |
| CCCCCCOC(=O)CCCCC [Hexyl hexanoate] | Kd | µM | 44.7 |
| CCCCCCCCCC | Kd | µM | 44.6 |
